This collection of values is drawn from patent US20240228488A1.

Target: human activated kallikrein enzyme (Homo sapiens, UniProt P03952)
Sequence (P03952 391-638 limits assumed): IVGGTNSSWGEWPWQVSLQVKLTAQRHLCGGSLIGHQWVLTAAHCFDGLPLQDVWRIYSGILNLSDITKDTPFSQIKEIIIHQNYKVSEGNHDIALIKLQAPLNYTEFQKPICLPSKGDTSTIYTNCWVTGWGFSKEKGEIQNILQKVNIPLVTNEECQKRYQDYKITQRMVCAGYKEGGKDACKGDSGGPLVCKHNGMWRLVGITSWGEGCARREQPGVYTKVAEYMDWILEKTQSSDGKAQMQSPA
Sequence (P03952 20-390 partner limits assumed): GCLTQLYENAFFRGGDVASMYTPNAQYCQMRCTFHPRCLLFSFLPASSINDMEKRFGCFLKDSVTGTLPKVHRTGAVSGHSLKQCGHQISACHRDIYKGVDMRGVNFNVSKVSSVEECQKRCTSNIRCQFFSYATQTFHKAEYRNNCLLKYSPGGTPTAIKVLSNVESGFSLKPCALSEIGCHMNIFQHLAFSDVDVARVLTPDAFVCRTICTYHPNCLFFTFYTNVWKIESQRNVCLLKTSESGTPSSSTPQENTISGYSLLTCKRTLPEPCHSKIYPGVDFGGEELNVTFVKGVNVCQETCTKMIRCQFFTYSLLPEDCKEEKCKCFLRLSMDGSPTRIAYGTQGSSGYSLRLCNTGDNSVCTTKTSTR
Assay: Plasma kallikrein inhibition, fluorogenic PFR-AMC substrate, 500 pM activated kallikrein format
Assay type: biochemical
Settings: 500 pM activated kallikrein, 300 uM PFR-AMC, 30 min preincubation, 10 min reaction; read-out: Primary Dose Response Assay: Average EC50
pEC50: −log10 of the molar value.
metric: pEC50

Before answering, review these 5 worked examples.
[
  {
    "molecule": "N[C@H]1C[C@H](c2cn3cc(C4CC4)ccc3n2)N(c2cc(NC(=O)[C@H]3C[C@@H]3c3cccc(Cl)c3)ncn2)C1",
    "endpointResult": "5.22 to 6.00"
  },
  {
    "molecule": "Cc1ccnc([C@H]2C[C@@H]2C(=O)Nc2cc(C(O)Cc3cn4cc(C5CC5)cc(N5CC(=O)N(C)C5=O)c4n3)nc(C)n2)n1 (stereo partly drawn)",
    "endpointResult": "7.00 to 8.00"
  },
  {
    "molecule": "O=C(Nc1cc(NCc2cn3cc(C4CC4)ccc3n2)ncn1)[C@@H]1C[C@H]1c1cccc(Cl)c1 (single isomer, unassigned)",
    "endpointResult": "6.00 to 7.00"
  },
  {
    "molecule": "Cc1ccnc([C@H]2C[C@@H]2C(=O)Nc2cc(OCc3cn4cc(C5CC5)cc(N5CC(=O)N(C)C5=O)c4n3)nc(C(C)O)n2)n1 (stereo partly drawn)",
    "endpointResult": "> 9.00"
  },
  {
    "molecule": "CC(=O)Nc1cc(C2CC2)cn2cc(CNc3ccnc(NC(=O)[C@H]4C[C@@H]4c4cccc(Cl)c4)c3)nc12",
    "endpointResult": "> 9.00"
  }
]

// recorded pEC50 for O=C(Nc1cc(NCc2cn3cc(C4CC4)cc(-n4cnnc4)c3n2)ncn1)[C@H]1C[C@@H]1c1cccc(Cl)c1 (racemic) : > 9.00
